Origin of values: patent US5814646A

System: Aβ production in 293 751 SWE and CHO 751 SWE cells (transfected with APP-751 Swedish mutation)
Assay: Aβ production inhibition activity in cells (Aβ ELISA of conditioned media, normalized for cytotoxicity by MTT)
Type: cell-based
Conditions: 2 h pretreatment + 2 h incubation
assay readout: IC50 (µM)

[[record]]
compound = "CC(C)(C)c1ccc(Sc2ccc(CN(O)C(=S)NCc3ccccc3)cc2)cc1 [Compound 88]"
assay_readout = "IC50"
reported_value = 7.5

[[record]]
compound = "CC(C)(C)c1ccc(Oc2ccc(NC(=S)NCc3cccc(Cl)c3)cc2)cc1 [Compound 105]"
assay_readout = "IC50"
reported_value = 9.4

[[record]]
compound = "O=C(Nc1ccccc1)Nc1ccc(Cl)c(Cl)c1 [Compound 152]"
assay_readout = "IC50"
reported_value = 11.4

[[record]]
compound = "COc1c(C(C)(C)C)cc(COc2cccc(CN(O)C(=S)NCc3ccccc3)c2)cc1C(C)(C)C [Compound 72]"
assay_readout = "IC50"
reported_value = 8.1

[[record]]
compound = "CC(C)(C)c1ccc(Oc2ccc(NC(=S)Nc3cccc(C(F)(F)F)c3)cc2)cc1 [Compound 175]"
assay_readout = "IC50"
reported_value = 7.3

[[record]]
compound = "CC(C)(C)c1ccc(Oc2ccccc2CN(O)C(=S)NCc2ccccc2)cc1 [Compound 180]"
assay_readout = "IC50"
reported_value = 11.6

[[record]]
compound = "CCC(c1cccc(Oc2ccc(C(C)(C)C)cc2)c1)N(O)C(=S)Nc1ccc(Cl)c(C(F)(F)F)c1 (stereo not drawn) [Compound 23]"
assay_readout = "IC50"
reported_value = 11

[[record]]
compound = "CC(C)(C)c1cccc(Oc2cccc(CN(O)C(=S)NCc3ccccc3)c2)c1 [Compound 187]"
assay_readout = "IC50"
reported_value = 12.1

[[record]]
compound = "O=C(Nc1ccc(Cl)c(Cl)c1)Nc1nncs1 [Compound 235]"
assay_readout = "IC50"
reported_value = 10

[[record]]
compound = "CC(C)(C)c1ccc(Oc2ccc(NC(=S)NCc3ccc(F)cc3Cl)cc2)cc1 [Compound 130]"
assay_readout = "IC50"
reported_value = 7.2

[[record]]
compound = "CC(NC(=S)NCc1ccccc1)c1cccc(Oc2ccc(C(C)(C)C)cc2)c1 (stereo not drawn) [Compound 39]"
assay_readout = "IC50"
reported_value = 10.5

[[record]]
compound = "Cc1cccc(CNC(=S)N(O)C(C)c2cccc(Oc3ccc(C(C)(C)C)cc3)c2)c1 (stereo not drawn) [Compound 6]"
assay_readout = "IC50"
reported_value = 11.1

[[record]]
compound = "CCCC(c1cccc(Oc2ccc(C(C)(C)C)cc2)c1)N(O)C(=S)NCc1ccccc1 (stereo not drawn) [Compound 29]"
assay_readout = "IC50"
reported_value = 7.5

[[record]]
compound = "Cc1ccccc1CNC(=S)N(O)C(C)c1cccc(Oc2ccc(C(C)(C)C)cc2)c1 (stereo not drawn) [Compound 5]"
assay_readout = "IC50"
reported_value = 10.3

[[record]]
compound = "CC(C)(C)c1ccc(-c2ccc(CN(O)C(=S)Nc3ccc(Cl)c(C(F)(F)F)c3)cc2)cc1 [Compound 83]"
assay_readout = "IC50"
reported_value = 12.4

[[record]]
compound = "CSc1ccc(NC(=O)Nc2cc(Cl)c(Cl)c(Cl)c2)cc1 [Compound 155]"
assay_readout = "IC50"
reported_value = 5.8

[[record]]
compound = "COc1ccc(CNC(=S)Nc2ccc(Oc3ccc(C(C)(C)C)cc3)cc2)cc1 [Compound 111]"
assay_readout = "IC50"
reported_value = 8.3

[[record]]
compound = "CC(c1cccc(Oc2ccc(C(C)(C)C)cc2)c1)N(O)C(=S)NCc1cccc(Cl)c1 (stereo not drawn) [Compound 16]"
assay_readout = "IC50"
reported_value = 12

[[record]]
compound = "O=C(Nc1ccc(Cl)c(Cl)c1)Nc1nnc(Cl)s1 [Compound 232]"
assay_readout = "IC50"
reported_value = 2

[[record]]
compound = "CC(C)(C)c1ccc(Oc2ccc(NC(=S)NCCc3ccccc3)cc2)cc1 [Compound 116]"
assay_readout = "IC50"
reported_value = 19.8

[[record]]
compound = "CC(C)(C)c1ccc(Oc2ccc(NC(=S)NCc3cccc(Br)c3)cc2)cc1 [Compound 107]"
assay_readout = "IC50"
reported_value = 7.2

